From: PubChem BioAssay (NCI)

System: HL-60(TB) leukemia
protocol_description: NCI tumour cell line growth inhibition, 48 h
endpoint: TGI

Data request: Name the reported TGI value associated with the compound C1CCN2CC34CC(CC5CCCN(C6CCCC3N6)C54)C2C1 (stereo unspecified)
Data returned: > 100 µM

Data request: Name the reported TGI value associated with the compound COc1ccc(C2=C(N)c3ccccc3C2=O)cc1
Data returned: > 100 µM

Data request: Quick check: TGI of Nc1ncc(Cc2nn3c(COc4ccc(Cl)cc4)nnc3s2)s1 ?
Data returned: > 100 µM

---
Data request: Which TGI reading was recorded for the compound O=c1oc2ccccc2cc1-c1nc2ccccc2s1 ?
Data returned: > 100 µM

Data request: For COc1ccc(/C=C(\C#N)c2nc(-c3cc4ccccc4oc3=O)cs2)cc1 , what is its reported TGI?
Data returned: > 100 µM

Data request: Give its TGI value. Item: NCCCN1CCN(CCCNc2ccc3ncn4c5ccccc5c(=O)c2c34)CC1
Data returned: 10.1 µM

====

System: SR leukemia
protocol_description: NCI tumour cell line growth inhibition, 48 h
# TGI listing for each entry below

Data request: If you can, please state the reported TGI value of Cc1cc(C#Cc2ccccc2)ccc1-n1c(/C=C/c2ccc(O)cc2)nc2ccccc2c1=O .
Data returned: 29 µM

Next:
Data request: Fill blank: measured TGI of the molecule CCCCN=C(OC1C=CCCC1)SC (stereo not drawn) is ____.
Data returned: > 100 µM

Data request: What TGI value was documented for this molecule, COc1cc(C(=O)c2c(-c3ccccc3)oc3ccccc23)cc(OC)c1O ?
Data returned: 23.9 µM

Data request: Need TGI of C/C(=N\n1c(N)c(C#N)c(-c2ccc(Cl)cc2)c(C#N)c1=O)c1cccnc1 , thanks.
Data returned: > 100 µM

Data request: Quick one: TGI of C#Cc1ccccc1C(=O)OC ?
Data returned: > 100 µM

Data request: Report TGI for O=c1oc2ccccc2cc1-c1nc2ccccc2s1 please.
Data returned: > 100 µM

Data request: Which TGI value belongs to OCC1=C[C@@](COCc2ccccc2)(OCc2ccccc2)[C@@H](OCc2ccccc2)[C@@H]1OCc1ccccc1 ?
Data returned: 33.4 µM

Data request: Fill in the blank: the reported TGI of O=C(N/N=C\c1cc(Cl)ccc1O)N/N=C/c1cc(Cl)ccc1O is ____.
Data returned: > 100 µM

Data request: Quick one: TGI for O=C1CCCc2c(O)ccc(O)c21 ?
Data returned: 91.2 µM

Data request: Report TGI for C1CN(C23OC4(N5CCOCC5)C5C6CC(C7C6C4C72)C53)CCO1 (stereo not drawn) please.
Data returned: > 100 µM

Data request: // lookup TGI for O=C(NC(Cc1c[nH]c2ccccc12)C(=O)O)/C(=C/c1ccccc1)NC(=O)c1ccccc1 (stereo not drawn)
Data returned: > 100 µM

Data request: Any idea what TGI was measured for OCC1CC2CC1C1(C2)OCCO1 (stereo not drawn) ?
Data returned: > 100 µM

Data request: What value of TGI has been reported for the following molecule? Cc1cc2nnn(C3CCCO3)c2cc1C (stereo not drawn)
Data returned: > 100 µM

Data request: What value of measured TGI is listed for CC[N+]1(C)CCC(O)(/C=C/c2ccc(Cl)c(Cl)c2)C(C(=O)/C=C/c2ccc(Cl)c(Cl)c2)C1 (stereo not drawn) ?
Data returned: > 22.7 µM

Data request: Request the reported TGI associated with O=C(O)c1cc2c(cc1CC(Cc1ccccc1)C(=O)O)CCC2 (stereo not drawn)
Data returned: > 100 µM

Data request: Please report the recorded TGI for Cc1ccc(C)c2sc3cc(=O)ccc-3nc12 .
Data returned: > 100 µM

Data request: Form field: reported TGI of CC(=O)Nc1oc(C)nc1C#N
Data returned: > 100 µM

Data request: What measured TGI goes with CC(C)(CN1CCCCC1)C(=O)CC(SCCS(=O)(=O)O)c1ccc(Cl)c(Cl)c1 (stereo not drawn) ?
Data returned: 6.38 µM

Data request: What value of TGI has been reported for the following molecule? Cc1ccc2c3ccc4c(c3n(C)c2c1)C(=O)C=CC4=O
Data returned: 4.73 µM

Data request: What value of measured TGI is listed for COC(=O)[C@]12CCC(=O)N1[C@H](C(=O)O)Cc1c2[nH]c2ccccc12 ?
Data returned: > 100 µM

Data request: What does the record list as TGI for Cc1cc(Br)cc(C)c1NC(=O)C(=O)C(C(=O)c1ccc(Cl)c(Cl)c1)C1OC(=O)c2ccccc21 (stereo not drawn) ?
Data returned: > 100 µM

Data request: Need TGI of NC(=O)c1ccc(NC(=O)c2oc3ccccc3c2-c2cnn(-c3ccccc3)c2)cc1 , thanks.
Data returned: > 100 µM

Data request: # lookup: TGI of CN1C(C(=O)Nc2ccccn2)=C(O)c2ccccc2S1(=O)=O
Data returned: > 100 µM
